Reference source: paper PMC2666046

- assayed.system: UniProt:Q81RP3
- assay.notes: biochemical
readout.label: pIC50
Recall that pIC50 is obtained by taking minus log10 of the concentration measured in molar.

compound="NC(=O)c1ccc(/N=C/c2cc([N+](=O)[O-])ccc2Cl)cc1 [Compound 5679]" readout_label=pIC50 test_result=3.58
compound="O=C(Nc1cccc(/N=C/c2cc([N+](=O)[O-])ccc2O)c1)c1ccc(Cl)cc1Cl [Compound 5691]" readout_label=pIC50 test_result=3.97
compound="O=[N+]([O-])c1ccc(-c2cnc(N/N=C/c3cccc([N+](=O)[O-])c3)nc2)cc1 [Compound 5591]" readout_label=pIC50 test_result=3.80
compound="N/C(=N\\OC(=O)c1ccc(Cl)c(Cl)c1)c1cccc(CSc2ccccn2)c1 [Compound 5775]" readout_label=pIC50 test_result=3.54
compound="COc1ccc(NC(=O)Nc2cccc(NC(=O)Nc3ccc(OC)cc3)c2F)cc1 [Compound 5707]" readout_label=pIC50 test_result=3.60

Attention now shifts to the item below.
Input line: Quick one: pIC50 of O=C(Cn1cc(/C=C/c2[nH]c(=O)[nH]c(=O)c2[N+](=O)[O-])c2ccccc21)Nc1ccc(F)cc1 [Compound 5615] ?
Output line: 4.26

###

- assayed.system: B. anthracis NADS (Bacillus anthracis, UniProt Q81RP3)
- Sequence (Q81RP3 whole entry, looked up): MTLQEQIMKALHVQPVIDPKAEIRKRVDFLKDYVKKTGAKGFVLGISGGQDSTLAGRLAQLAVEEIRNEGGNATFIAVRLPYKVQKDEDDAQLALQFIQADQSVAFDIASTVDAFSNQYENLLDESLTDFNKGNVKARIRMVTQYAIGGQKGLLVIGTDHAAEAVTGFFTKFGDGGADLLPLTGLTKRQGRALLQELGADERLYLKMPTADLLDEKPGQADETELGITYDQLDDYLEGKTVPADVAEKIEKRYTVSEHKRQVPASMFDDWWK
- assay.notes: biochemical
- details: read-out: NADs IC50
readout.label: IC50 (µM)
Give the value, in units of µM, as a plain number.

Input line: # get_value(readout='IC50', item= O=C(Cn1cc(/C=C/c2[nH]c(=O)[nH]c(=O)c2[N+](=O)[O-])c2ccccc21)Nc1ccc(F)cc1 )
Output line: 55.4
